B1: POU domain, class 3, transcription factor 1, residues 247 to 324; numbered along this chain, Q03052 (parent)
chain: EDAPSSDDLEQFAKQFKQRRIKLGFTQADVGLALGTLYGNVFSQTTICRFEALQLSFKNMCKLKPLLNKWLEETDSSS

variants of: B1; experiment: abundance fitness (aPCA) (normalised: wild type 0, dead -1); higher = more abundant; growth selection in yeast, the domain comes from the species named; details: Homo sapiens
Quick rule for you: abundance fitness at -0.3 or higher means YES, lower means NO.

| VARIANT_IDENTIFIER | LABEL_VALUE |
| --- | --- |
| E51N | NO |
| S77E | YES |
| K64P | NO |
| D75C | YES |
| I21H | NO |

INPUT: Decide: abundance fitness of D29G >= -0.3?
OUTPUT: YES

INPUT: Decide: abundance fitness of K69M >= -0.3?
OUTPUT: YES

INPUT: Decide: abundance fitness of N68M >= -0.3?
OUTPUT: YES

INPUT: Decide: abundance fitness of K64F >= -0.3?
OUTPUT: NO

INPUT: Decide: abundance fitness of P65C >= -0.3?
OUTPUT: YES

INPUT: Decide: abundance fitness of E51G >= -0.3?
OUTPUT: YES

INPUT: Decide: abundance fitness of Q27G >= -0.3?
OUTPUT: NO

INPUT: Decide: abundance fitness of T26H >= -0.3?
OUTPUT: YES

INPUT: Decide: abundance fitness of G35P >= -0.3?
OUTPUT: NO

INPUT: Decide: abundance fitness of L37V >= -0.3?
OUTPUT: YES

INPUT: Decide: abundance fitness of A33V >= -0.3?
OUTPUT: YES

INPUT: Decide: abundance fitness of V30P >= -0.3?
OUTPUT: NO

INPUT: Decide: abundance fitness of V41K >= -0.3?
OUTPUT: YES

INPUT: Decide: abundance fitness of A33T >= -0.3?
OUTPUT: NO

INPUT: Decide: abundance fitness of L71M >= -0.3?
OUTPUT: YES

INPUT: Decide: abundance fitness of E51A >= -0.3?
OUTPUT: NO

INPUT: Decide: abundance fitness of K58H >= -0.3?
OUTPUT: YES

INPUT: Decide: abundance fitness of T26P >= -0.3?
OUTPUT: NO
